system: Cytospora; assay: Antifungal activity against Cytospora mandshurica at 50 ug/ml by poison plate technique; assay type: functional
value.type: inhibition at 50 µg/mL (%)

[
  {
    "compound": "COc1cc(-c2nnc([S+]([O-])Cc3ccccc3Cl)o2)cc(OC)c1OC (stereo not given)",
    "value.type": "inhibition at 50 µg/mL",
    "result": -0.33
  },
  {
    "compound": "COc1cccc(C[S+]([O-])c2nnc(-c3cc(OC)c(OC)c(OC)c3)o2)c1 (stereo not given)",
    "value.type": "inhibition at 50 µg/mL",
    "result": 25.7
  },
  {
    "compound": "COc1cc(-c2nnc([S+]([O-])Cc3cccc([N+](=O)[O-])c3)s2)cc(OC)c1OC (stereo not given)",
    "value.type": "inhibition at 50 µg/mL",
    "result": 6.63
  },
  {
    "compound": "CCOC(=O)C[S+]([O-])c1nnc(-c2cc(OC)c(OC)c(OC)c2)o1 (stereo not given)",
    "value.type": "inhibition at 50 µg/mL",
    "result": 6.9
  },
  {
    "compound": "Cc1cc(O)no1 [HYMEXAZOL]",
    "value.type": "inhibition at 50 µg/mL",
    "result": 52
  },
  {
    "compound": "COc1cc(-c2nnc([S+]([O-])Cc3ccccc3)s2)cc(OC)c1OC (stereo not given)",
    "value.type": "inhibition at 50 µg/mL",
    "result": 16
  },
  {
    "compound": "COc1cc(-c2nnc([S+]([O-])Cc3cccc(F)c3)s2)cc(OC)c1OC (stereo not given)",
    "value.type": "inhibition at 50 µg/mL",
    "result": 12
  },
  {
    "compound": "COc1cc(-c2nnc([S+]([O-])Cc3ccccc3)o2)cc(OC)c1OC (stereo not given)",
    "value.type": "inhibition at 50 µg/mL",
    "result": 56.1
  },
  {
    "compound": "COc1cccc(C[S+]([O-])c2nnc(-c3cc(OC)c(OC)c(OC)c3)s2)c1 (stereo not given)",
    "value.type": "inhibition at 50 µg/mL",
    "result": 11
  },
  {
    "compound": "CCOC(=O)C[S+]([O-])c1nnc(-c2cc(OC)c(OC)c(OC)c2)s1 (stereo not given)",
    "value.type": "inhibition at 50 µg/mL",
    "result": 8.42
  }
]
